# Protocol details: Cytotoxicity against human ARPE-19 cells assessed as cell viability measured after 72 hrs by MTT assay
# Type: toxicity, cell-based
EC50 at 72 h values for the molecules below.
Metric name: EC50 at 72 h (µM)

| Smiles string | Metric name | Result value |
| --- | --- | --- |
| CNC(=O)c1cccc(Cn2nc(C)c(NC(=O)c3ccc(COc4ccc(C(F)(F)F)cc4)cc3)c2C)c1 | EC50 at 72 h | 47.9 |
| CNC(=O)c1cccc(Cn2nc(C)c(NC(=O)c3ccc(COc4ccc(C(F)(F)F)cc4C)cc3)c2C)c1 | EC50 at 72 h | 7.1 |

###

remaining at 24 h values for the molecules below.
# Protocol details: Metabolic stability in mouse plasma assessed as parent compound remaining measured after 24 hrs by LC-MS/MS analysis
# Type: ADME, cell-free
# Conditions used: read-out: Stability
Metric name: remaining at 24 h (%)

| Smiles string | Unit of measure | Result value |
| --- | --- | --- |
| CNC(=O)c1cccc(Cn2nc(C)c(NC(=O)c3ccc(COc4ccc(C(F)(F)F)cc4)cc3)c2C)c1 | % | 77 |
| CNC(=O)c1cccc(Cn2nc(C)c(NC(=O)c3ccc(COc4ccc(C(F)(F)F)cc4C)cc3)c2C)c1 | % | 93 |

###

# System: MIA PaCa-2
# Protocol details: Antiproliferative activity against human MIA PaCa-2 cells assessed as cell viability measured after 72 hrs by MTT assay
# Type: functional, cell-based
# Conditions used: MIA PaCa-2, 72 h
EC50 values for the compounds below.

| Smiles string | EC50 |
| --- | --- |
| CNC(=O)c1cccc(Cn2nc(C)c(NC(=O)c3ccc(COc4ccccc4C(F)(F)F)cc3)c2C)c1 | 10 µM |
| CNC(=O)c1cccc(Cn2nc(C)c(NC(=O)c3ccc(COc4ccccc4C)cc3)c2C)c1 | 2.1 µM |
| Cc1nn(Cc2cccc(C(=O)NC(C)C)c2)c(C)c1NC(=O)c1ccc(COc2ccccc2)cc1 | 8.9 µM |
| CNC(=O)c1cccc(Cn2nc(C)c(NC(=O)c3ccc(COc4ccccc4Cl)cc3)c2C)c1 | 6.3 µM |
| Cc1nn(Cc2cccc(C(N)=O)c2)c(C)c1NC(=O)c1ccc(COc2ccccc2)cc1 | 9.2 µM |
